Each recorded value in this set is attributed to ChEMBL document CHEMBL4004787.

assay: Growth inhibition of HEK293 cells at 40 uM after 72 hrs by PrestoBlue staining based fluorescence assay relative to control; format: cell-based; conditions: human, read-out: GI
measured-property: inhibition at 72 h, 40 µM (%)

INSERT INTO measurements (line_notation, measured_property, observed_result) VALUES
  ('CC(=O)O[C@H](/C=C1/C=CC(=O)O1)COC(=O)c1ccccc1', 'inhibition at 72 h, 40 µM', 100);

----------
tested on: Plasmodium falciparum; experiment: Growth inhibition of chloroquine-sensitive Plasmodium falciparum 3D7 infected in human RBC at 40 uM after 72 hrs by DAPI staining based confocal microscopic method relative to control; type: functional; settings: 3D7, 72 h, read-out: GI
inhibition of growth at 40 µM: recorded values
measured-property: inhibition of growth at 40 µM (%)

INSERT INTO measurements (line_notation, target_or_test_system, observed_result) VALUES
  ('CC(=O)O[C@H]1C=C[C@H](Cl)[C@](O)(COC(=O)c2ccccc2)[C@@H]1O', 'Plasmodium falciparum', 95),
  ('CC(=O)O[C@H]1C=C[C@H](Cl)[C@@](O)(COC(=O)c2ccccc2)[C@@H]1O', 'Plasmodium falciparum', 72),
  ('CC(=O)O[C@H]1C=C[C@H](O)[C@@](O)(COC(=O)c2ccccc2)[C@@H]1OC(C)=O', 'Plasmodium falciparum', 54);

----------
system: Plasmodium falciparum; test: Growth inhibition of chloroquine-sensitive Plasmodium falciparum 3D7 infected in human RBC at 40 uM after 72 hrs by DAPI staining based confocal microscopic method relative to control; assay type: functional; conditions: 3D7, 72 h, read-out: GI
This listing pairs compounds with measured inhibition of growth at 40 µM.
measured-property: inhibition of growth at 40 µM (%)

INSERT INTO results (compound, measured_property, observed_result) VALUES
  ('O=C(OCc1cc(O)ccc1O)c1ccccc1', 'inhibition of growth at 40 µM', 67),
  ('CC(=O)O[C@@H]1C=C[C@@H](OC(=O)c2ccccc2)[C@@](O)(COC(=O)c2ccccc2)[C@H]1OC(C)=O', 'inhibition of growth at 40 µM', 99),
  ('CC(=O)O[C@H](OC(=O)c1ccccc1)[C@@]12C=C[C@@H](c3ccc(C=O)cc31)[C@H](O)[C@H]2OC(C)=O', 'inhibition of growth at 40 µM', 98),
  ('O=Cc1cccc(O)c1 [3-HYDROXYBENZALDEHYDE]', 'inhibition of growth at 40 µM', 25),
  ('O=C1C=C/C(=C/[C@@H](O)COC(=O)c2ccccc2)O1', 'inhibition of growth at 40 µM', 92);

----------
tested on: Plasmodium falciparum; assay: Antimalarial activity against chloroquine-resistant Plasmodium falciparum Dd2 infected in human RBC after 72 hrs by DAPI staining based confocal microscopic method; format: functional; settings: Dd2, 72 h
IC50 listing for selected molecules.
measured-property: IC50

INSERT INTO results (molecule, target_or_test_system, measured_property, observed_result) VALUES
  ('C[C@H]1[C@@H](O)O[C@@H]2O[C@@]3(C)CC[C@H]4[C@H](C)CC[C@@H]1[C@@]24OO3', 'Plasmodium falciparum', 'IC50', '0.15 nM'),
  ('CC(=O)O[C@@H]1C=C[C@H](O)[C@@H](O)/C1=C/OC(=O)c1ccccc1', 'Plasmodium falciparum', 'IC50', '480 nM'),
  ('CC(=O)OC(OC(=O)c1ccccc1)C1=CC=C[C@H](O)[C@H]1OC(C)=O (some centres undefined)', 'Plasmodium falciparum', 'IC50', '2200 nM'),
  ('CC(=O)O[C@@H]1C=C[C@H](O)[C@@H](OC(C)=O)/C1=C/OC(=O)c1ccccc1', 'Plasmodium falciparum', 'IC50', '3400 nM');
